- System: Pseudomonas aeruginosa
- TEST METHOD NOTES: Antibacterial activity against Pseudomonas aeruginosa CR56 after overnight incubation by disc diffusion method
- Assay type: functional
ASSAY METRIC: MIC

Short answer for CN(CC(=O)N1CCCCC1)CC(O)Cn1c(=O)c2ccccc2n(C)c1=O.Cl (stereo unspecified) : MIC was ≥ 512 µg/mL

Short answer for CN(CC(=O)N(C)c1ccccc1)CC(O)Cn1c(=O)c2ccccc2n(C)c1=O.Cl (stereo unspecified) : MIC was ≥ 512 µg/mL

Short answer for COc1ccc(NC(=O)CN(C)CC(O)Cn2c(=O)c3ccccc3n(C)c2=O)cc1.Cl (stereo unspecified) : MIC was ≥ 512 µg/mL

Short answer for CN[C@@H]1[C@H](O[C@H]2[C@H](O[C@H]3[C@H](O)[C@@H](O)[C@H](N=C(N)N)[C@@H](O)[C@@H]3N=C(N)N)O[C@@H](C)[C@]2(O)C=O)O[C@@H](CO)[C@H](O)[C@H]1O.CN[C@@H]1[C@H](O[C@H]2[C@H](O[C@H]3[C@H](O)[C@@H](O)[C@H](N=C(N)N)[C@@H](O)[C@@H]3N=C(N)N)O[C@@H](C)[C@]2(O)C=O)O[C@@H](CO)[C@H](O)[C@H]1O.O=S(=O)(O)O.O=S(=O)(O)O.O=S(=O)(O)O [STREPTOMYCIN SULFATE] : MIC was 64 µg/mL

Short answer for CN(CC(=O)Nc1cccc([N+](=O)[O-])c1)CC(O)Cn1c(=O)c2ccccc2n(C)c1=O.Cl (stereo unspecified) : MIC was ≥ 512 µg/mL

Short answer for CCN(CC)C(=O)CN(C)CC(O)Cn1c(=O)c2ccccc2n(C)c1=O.Cl (stereo unspecified) : MIC was ≥ 512 µg/mL
